- tested system: T1, CTLA-4-hFc (immunogen A; hFc-labeled CTLA-4 extracellular domain protein) (human, UniProt P16410 36-161)
- T1 construct: range 36-161; Made in HEK293 cells, purified on protein A; also called CLTA-4-hFc; CTLA-4 protein; not shown: human IgG Fc fragment (hFc) of the pCpC vector
- T1 sequence (looked up): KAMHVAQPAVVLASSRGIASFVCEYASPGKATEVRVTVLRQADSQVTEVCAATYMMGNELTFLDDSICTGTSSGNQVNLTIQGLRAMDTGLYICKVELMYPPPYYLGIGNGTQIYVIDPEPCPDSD
- assay: blocking assay, CTLA-4 protein, competitor B7.2
- Protocol: CTLA-4 extracellular domain protein (CTLA-4-hFc) was diluted with PBS to a final concentration of 1.0 μg/mL, and then added to a 96-well ELISA plate as 100 μl per well. The plate was covered with a plastic film and incubated overnight at 4° C. […] An ELISA plate reader (SpectraMax 384plus, Molecular Device) was used to read the A450 nm value.
measured attribute: % Block at 8 nM (%)
Expressed in %, but write only the number.

97A8D1 fully human CTLA-4 antibody (human IgG1, kappa) (antibody, V domains shown, also called mAb49; mAb049) VH: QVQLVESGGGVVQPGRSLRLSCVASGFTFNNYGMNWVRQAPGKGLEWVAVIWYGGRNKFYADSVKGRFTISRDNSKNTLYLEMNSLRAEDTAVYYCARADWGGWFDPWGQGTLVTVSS VL: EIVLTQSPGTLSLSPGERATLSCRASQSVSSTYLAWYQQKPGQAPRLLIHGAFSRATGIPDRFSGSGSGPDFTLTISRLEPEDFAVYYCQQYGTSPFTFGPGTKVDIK : 99.2
40C4C6 fully human CTLA-4 antibody (human IgG1, kappa) (antibody, V domains shown, also called mAb09; mAb009) VH: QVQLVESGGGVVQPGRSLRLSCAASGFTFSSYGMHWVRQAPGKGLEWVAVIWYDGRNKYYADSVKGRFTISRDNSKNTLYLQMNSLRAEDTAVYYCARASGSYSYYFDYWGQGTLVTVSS VL: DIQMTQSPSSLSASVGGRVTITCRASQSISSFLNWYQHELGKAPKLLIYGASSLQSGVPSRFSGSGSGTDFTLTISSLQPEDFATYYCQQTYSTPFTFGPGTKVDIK : 99.1

Q: Suppose we examine the binder 31C12F3 fully human CTLA-4 antibody (human IgG1, kappa) (antibody, V domains shown, also called mAb010) VH: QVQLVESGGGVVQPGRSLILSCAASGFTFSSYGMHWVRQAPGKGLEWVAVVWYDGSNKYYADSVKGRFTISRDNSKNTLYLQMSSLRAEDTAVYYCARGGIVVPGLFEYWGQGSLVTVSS VL: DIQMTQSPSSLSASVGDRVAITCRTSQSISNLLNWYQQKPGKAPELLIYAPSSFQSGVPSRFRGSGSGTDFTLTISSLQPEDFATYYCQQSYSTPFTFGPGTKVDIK ; what % Block at 8 nM value has been reported?
Result: 99.1

Q: Next: 92C8B6 fully human CTLA-4 antibody (human IgG1, kappa) (antibody, V domains shown, also called mAb42; mAb042) VH: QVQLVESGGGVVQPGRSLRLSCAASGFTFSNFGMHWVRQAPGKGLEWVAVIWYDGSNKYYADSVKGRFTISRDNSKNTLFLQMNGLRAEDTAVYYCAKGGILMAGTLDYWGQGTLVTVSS VL: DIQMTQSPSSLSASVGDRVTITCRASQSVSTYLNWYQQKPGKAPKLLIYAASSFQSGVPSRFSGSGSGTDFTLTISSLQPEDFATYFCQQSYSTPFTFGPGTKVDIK
Result: 99.2

Where do these numbers come from? They come from patent US20210324080A1.
